SYSTEM_UNDER_TEST: T1, Aβ pathology (plaques) in human AD brain tissue (human, UniProt P05067 672-713)
T1 construct: Native tissue deposits, heterogeneous; also called tissue Aβ pathology; Aβ plaques
EXPERIMENT_SUMMARY: IHC on frozen human AD brain sections, brain AD 14-11; % stained area against antibody concentration (0.03-9 µg/ml)
QUANTITY_KIND: Area Under Curve

* h2726 (antibody, V domains shown, Humanized IgG mAb; Only the variable domains are tied to the construct; also called PB-0573) VH: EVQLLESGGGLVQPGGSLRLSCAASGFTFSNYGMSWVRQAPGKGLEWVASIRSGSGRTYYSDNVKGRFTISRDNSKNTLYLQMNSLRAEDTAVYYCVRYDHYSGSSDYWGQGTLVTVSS VL: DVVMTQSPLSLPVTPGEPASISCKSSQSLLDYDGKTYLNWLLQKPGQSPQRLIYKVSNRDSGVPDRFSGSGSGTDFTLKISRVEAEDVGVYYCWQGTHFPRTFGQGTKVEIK | 149
* h2831 (antibody, V domains shown, Humanized IgG mAb; also called PB-0575) VH: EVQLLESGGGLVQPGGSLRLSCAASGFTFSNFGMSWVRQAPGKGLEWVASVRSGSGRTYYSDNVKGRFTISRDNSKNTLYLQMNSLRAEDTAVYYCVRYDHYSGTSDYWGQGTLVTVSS VL: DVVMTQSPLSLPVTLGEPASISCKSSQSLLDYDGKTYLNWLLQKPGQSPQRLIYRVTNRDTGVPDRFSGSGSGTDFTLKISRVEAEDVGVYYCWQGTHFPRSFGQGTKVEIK | 149
* h2731 (antibody, V domains shown, Humanized IgG mAb; Only the variable domains are tied to the construct) VH: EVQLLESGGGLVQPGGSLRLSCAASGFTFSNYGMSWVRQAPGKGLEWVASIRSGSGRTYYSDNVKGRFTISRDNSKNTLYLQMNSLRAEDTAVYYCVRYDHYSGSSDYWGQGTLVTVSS VL: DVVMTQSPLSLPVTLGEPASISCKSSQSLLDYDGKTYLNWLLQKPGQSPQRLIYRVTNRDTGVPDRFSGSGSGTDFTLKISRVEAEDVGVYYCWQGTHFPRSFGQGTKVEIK | 149
* h2931 (antibody, V domains shown, also called PB-0576) VH: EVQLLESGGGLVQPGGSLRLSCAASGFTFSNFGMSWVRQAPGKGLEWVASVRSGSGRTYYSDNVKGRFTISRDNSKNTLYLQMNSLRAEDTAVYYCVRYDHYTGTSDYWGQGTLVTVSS VL: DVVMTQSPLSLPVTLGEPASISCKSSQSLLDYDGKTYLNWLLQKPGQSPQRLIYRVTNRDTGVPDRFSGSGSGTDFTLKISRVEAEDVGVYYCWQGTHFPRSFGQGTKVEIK | 134
